test system: Escherichia coli TOP10; assay: shrunken log2 fold change of peptide-encoding DNA abundance (4.5 h post-induction vs induction); higher = less antimicrobial activity (less host growth inhibition); details: time post-induction: 4.5 h; library: site-saturation at positions 5, 18, 19, 20;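 also: peptides expressed intracellularly from a pBAD plasmid library in pooled LB shake-flask culture, induced with 0.3% L-arabinose, DNA abundance read by NGS, three biological replicates, DESeq2 with apeglm shrinkage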
measure: shrunken log2 fold change

sequence.text: RRIRFRPPRLPRPRPRPVKCPRP
measure: shrunken log2 fold change
observed.measurement: -0.0573
--
sequence.text: RRIRERPPRLPRPRPRPETDPRP
measure: shrunken log2 fold change
observed.measurement: -0.0989
--
sequence.text: RRIRYRPPRLPRPRPRPKASPRP
measure: shrunken log2 fold change
observed.measurement: -0.131
--
sequence.text: RRIRPRPPRLPRPRPRPILGPRP
measure: shrunken log2 fold change
observed.measurement: -0.148
--
sequence.text: RRIRCRPPRLPRPRPRPHAWPRP
measure: shrunken log2 fold change
observed.measurement: -0.245
--
sequence.text: RRIRFRPPRLPRPRPRPASNPRP
measure: shrunken log2 fold change
observed.measurement: -0.479
--
sequence.text: RRIRIRPPRLPRPRPRPDDWPRP
measure: shrunken log2 fold change
observed.measurement: -0.0592
--
sequence.text: RRIRRRPPRLPRPRPRPVPGPRP
measure: shrunken log2 fold change
observed.measurement: 0.402
--
sequence.text: RRIRCRPPRLPRPRPRPGCAPRP
measure: shrunken log2 fold change
observed.measurement: 0.593
--
sequence.text: RRIRFRPPRLPRPRPRPPCHPRP
measure: shrunken log2 fold change
observed.measurement: -0.0556
--
sequence.text: RRIRDRPPRLPRPRPRPYIFPRP
measure: shrunken log2 fold change
observed.measurement: 3.58
--
sequence.text: RRIRFRPPRLPRPRPRPRSIPRP
measure: shrunken log2 fold change
observed.measurement: -0.256
--
sequence.text: RRIRKRPPRLPRPRPRPESCPRP
measure: shrunken log2 fold change
observed.measurement: 0.183
--
sequence.text: RRIRSRPPRLPRPRPRPGAVPRP
measure: shrunken log2 fold change
observed.measurement: 0.324
--
sequence.text: RRIRQRPPRLPRPRPRPEVLPRP
measure: shrunken log2 fold change
observed.measurement: 0.0411
--
sequence.text: RRIRARPPRLPRPRPRPPNFPRP
measure: shrunken log2 fold change
observed.measurement: -0.0624
--
sequence.text: RRIRGRPPRLPRPRPRPFYNPRP
measure: shrunken log2 fold change
observed.measurement: 0.0314
--
sequence.text: RRIRWRPPRLPRPRPRPIRCPRP
measure: shrunken log2 fold change
observed.measurement: 0.0257
--
sequence.text: RRIRCRPPRLPRPRPRPQVLPRP
measure: shrunken log2 fold change
observed.measurement: -0.0248
--
sequence.text: RRIRARPPRLPRPRPRPGFCPRP
measure: shrunken log2 fold change
observed.measurement: 0.572
